FYI, the data here is from ChEMBL document CHEMBL1142309.

# assayExplanation: Aqueous solubility of the compound
# Type: physicochemical
# conditionsUsed: buffer
experimentalEndpoint: solubility

Look over these answered cases.
{"columns": ["smilesString", "resultValue"],
 "data": [
  ["CC(C)C[C@@H]1C(=O)N[C@H](C2Cc3ccccc3C2)C(=O)N1[C@@H](C(=O)NC(C)C)c1ccc(C(F)(F)F)o1", "< 1 µg/mL"],
  ["CC(C)C[C@@H]1C(=O)N[C@H](C2Cc3ccccc3C2)C(=O)N1[C@@H](C(=O)NC(C)C)c1ccc(Br)s1", "< 1 µg/mL"],
  ["CC[C@@H](C)[C@@H]1C(=O)N[C@H](C2Cc3ccccc3C2)C(=O)N1[C@@H](C(=O)N1CCOCC1)c1coc(C)n1", "> 220 µg/mL"]
]}

What does the record list as solubility for CC[C@H](C)[C@@H]1C(=O)N[C@H](C2Cc3ccccc3C2)C(=O)N1[C@@H](C(=O)N1CCOCC1)c1coc(C)n1 ?
> 220 µg/mL

Same question, Cc1nc([C@H](C(=O)NC(C)C)N2C(=O)[C@@H](C3Cc4ccccc4C3)NC(=O)[C@H]2CC(C)C)co1 this time
> 240 µg/mL

Same question, Cc1nc([C@H](C(=O)N2CCC2)N2C(=O)[C@@H](C3Cc4ccccc4C3)NC(=O)[C@H]2CC(C)C)co1 this time
> 220 µg/mL

* * *

# assayExplanation: Half life in rat at 2 mg/kg, iv or 5 mg/kg, po
# Format: ADME, organism-based
# conditionsUsed: in vivo
experimentalEndpoint: half-life (h)

{"columns": ["smilesString", "unitSymbol", "half-life"],
 "data": [
  ["Cc1nc([C@H](C(=O)N2CCC2)N2C(=O)[C@@H](C3Cc4ccccc4C3)NC(=O)[C@H]2CC(C)C)co1", "h", 1.4],
  ["CC[C@H](C)[C@@H]1C(=O)N[C@H](C2Cc3ccccc3C2)C(=O)N1[C@@H](C(=O)N1CCOCC1)c1coc(C)n1", "h", 1.4],
  ["CC[C@@H](C)[C@@H]1C(=O)N[C@H](C2Cc3ccccc3C2)C(=O)N1[C@@H](C(=O)N1CCOCC1)c1coc(C)n1", "h", 1.3],
  ["Cc1nc([C@H](C(=O)N2CCOCC2)N2C(=O)[C@@H](C3Cc4ccccc4C3)NC(=O)[C@H]2CC(C)C)co1", "h", 1.1]
]}

* * *

Where a SMILES comes first, the peptide text is derived from it. Bridges are numbered along the chain shown (N, C = ends). [ ]: non-standard residue; d: D form. Orn = NCCC[C@H](N)C(=O)O; Mpa = O=C(O)CCS
Each entry below carries its measured pKi, system: Vasopressin V2 receptor (Homo sapiens).
Sequence (P30518 whole entry): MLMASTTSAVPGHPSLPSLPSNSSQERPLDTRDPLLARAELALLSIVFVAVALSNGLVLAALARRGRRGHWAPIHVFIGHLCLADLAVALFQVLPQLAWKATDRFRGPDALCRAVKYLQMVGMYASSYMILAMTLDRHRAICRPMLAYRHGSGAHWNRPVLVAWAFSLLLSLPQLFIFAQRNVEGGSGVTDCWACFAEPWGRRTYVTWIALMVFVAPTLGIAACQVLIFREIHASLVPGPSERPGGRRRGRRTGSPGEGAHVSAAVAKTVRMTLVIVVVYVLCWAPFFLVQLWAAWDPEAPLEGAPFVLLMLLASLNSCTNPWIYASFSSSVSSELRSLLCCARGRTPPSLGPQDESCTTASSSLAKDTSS
Interpret pKi as the negative base-10 log of the concentration measured in mol/L.

{"columns": ["compound", "pKi"],
 "data": [
  ["CC[C@H](C)[C@@H]1C(=O)N[C@H](C2Cc3ccccc3C2)C(=O)N1[C@@H](C(=O)N1CCOCC1)c1coc(C)n1 [RETOSIBAN]", 6.02]
]}

Turning to the following compound.
Recall the recorded pKi for CCOc1ccc(C[C@H]2NC(=O)CCSSC[C@@H](C(=O)N3CCC[C@H]3C(=O)N[C@@H](CCCN)C(=O)NCC(N)=O)NC(=O)[C@H](CC(N)=O)NC(=O)[C@H]([C@@H](C)O)NC(=O)[C@H]([C@@H](C)CC)NC2=O)cc1 [ATOSIBAN] ([Mpa][dY](Et)ITNCP[Orn]G-NH2; disulfide 1-6) with Vasopressin V2 receptor (Homo sapiens) and state it.
6.48

* * *

# assayExplanation: Aqueous solubility of the compound
# Type: physicochemical
# conditionsUsed: buffer
Below, each of the compounds is paired with its reported solubility value.

{"columns": ["smilesString", "experimentalEndpoint", "resultValue"],
 "data": [
  ["Cc1nc([C@H](C(=O)N(C)CCO)N2C(=O)[C@@H](C3Cc4ccccc4C3)NC(=O)[C@H]2CC(C)C)co1", "solubility", "> 220 µg/mL"],
  ["Cc1nc([C@H](C(=O)N2CCOCC2)N2C(=O)[C@@H](C3Cc4ccccc4C3)NC(=O)[C@H]2CC(C)C)co1", "solubility", "> 220 µg/mL"],
  ["CC(C)C[C@@H]1C(=O)N[C@H](C2Cc3ccccc3C2)C(=O)N1[C@@H](C(=O)NC(C)C)c1ccc(F)cc1F", "solubility", "< 1 µg/mL"]
]}

Turning to the following compound.
What does the record list as solubility for Cc1ccc([C@H](C(=O)NC(C)C)N2C(=O)[C@@H](C3Cc4ccccc4C3)NC(=O)[C@H]2CC(C)C)o1 ?
34 µg/mL

* * *

# assayExplanation: AUC in rat at 5 mg/kg, po in HPMC/Tween formulation
# Type: ADME, organism-based
# Set-up: dose 5 mg/kg, route oral
# conditionsUsed: plasma
experimentalEndpoint: AUC (µg·h/mL)

a: Cc1nc([C@H](C(=O)N2CCOCC2)N2C(=O)[C@@H](C3Cc4ccccc4C3)NC(=O)[C@H]2CC(C)C)co1
b: CC[C@H](C)[C@@H]1C(=O)N[C@H](C2Cc3ccccc3C2)C(=O)N1[C@@H](C(=O)N1CCOCC1)c1coc(C)n1 [RETOSIBAN]
Sorting by AUC in descending order, would a or b appear first? Respond with the label that goes with your answer.
b
(b: 1.8 µg·h/mL, a: 1.19 µg·h/mL)

* * *

# systemUnderTest: UniProt P47901
# Sequence (P47901 whole entry): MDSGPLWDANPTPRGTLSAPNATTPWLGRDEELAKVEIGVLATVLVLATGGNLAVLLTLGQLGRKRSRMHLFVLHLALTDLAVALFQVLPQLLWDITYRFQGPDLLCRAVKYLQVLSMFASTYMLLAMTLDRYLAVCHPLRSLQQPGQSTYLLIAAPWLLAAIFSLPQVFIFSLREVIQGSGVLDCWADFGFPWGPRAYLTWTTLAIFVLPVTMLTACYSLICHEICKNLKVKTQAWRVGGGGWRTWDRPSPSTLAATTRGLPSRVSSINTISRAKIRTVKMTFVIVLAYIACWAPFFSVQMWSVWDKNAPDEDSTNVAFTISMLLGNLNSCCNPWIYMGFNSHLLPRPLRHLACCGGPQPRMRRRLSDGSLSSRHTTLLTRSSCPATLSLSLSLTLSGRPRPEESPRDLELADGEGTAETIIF
Where a SMILES comes first, the peptide text is derived from it. Bridges are numbered along the chain shown (N, C = ends). [ ]: non-standard residue; d: D form. Orn = NCCC[C@H](N)C(=O)O; Mpa = O=C(O)CCS
experimentalEndpoint: pKi
Interpret pKi as the negative base-10 log of the concentration measured in mol/L.

Recall the recorded pKi for CCOc1ccc(C[C@H]2NC(=O)CCSSC[C@@H](C(=O)N3CCC[C@H]3C(=O)N[C@@H](CCCN)C(=O)NCC(N)=O)NC(=O)[C@H](CC(N)=O)NC(=O)[C@H]([C@@H](C)O)NC(=O)[C@H]([C@@H](C)CC)NC2=O)cc1 [ATOSIBAN] ([Mpa][dY](Et)ITNCP[Orn]G-NH2; disulfide 1-6) with UniProt P47901 and state it.
7.36

* * *

# assayExplanation: Binding affinity to human serum albumin
# Format: ADME, cell-free
# conditionsUsed: read-out: PB (converted)
experimentalEndpoint: fraction unbound

{"columns": ["smilesString", "resultValue"],
 "data": [
  ["CC(C)C[C@@H]1C(=O)N[C@H](C2Cc3ccccc3C2)C(=O)N1[C@@H](C(=O)NC(C)C)c1ccc(C(F)(F)F)o1", 0.03]
]}

1: CC(C)C[C@@H]1C(=O)N[C@H](C2Cc3ccccc3C2)C(=O)N1[C@@H](C(=O)NC(C)C)c1ccc(F)cc1F
2: Cc1ccc([C@H](C(=O)NC(C)C)N2C(=O)[C@@H](C3Cc4ccccc4C3)NC(=O)[C@H]2CC(C)C)o1
Would you mind telling me which has the lower recorded fraction unbound between 1 and 2 ? Respond with the label that goes with your answer.
2
(2: 0.04, 1: 0.07)

* * *

# assayExplanation: Binding affinity to human serum albumin
# Format: ADME, cell-free
# conditionsUsed: read-out: PB (converted)
experimentalEndpoint: fraction unbound

P: CC(C)C[C@@H]1C(=O)N[C@H](C2Cc3ccccc3C2)C(=O)N1[C@@H](C(=O)NC(C)C)c1ccc(Br)s1
Q: Cc1nc([C@H](C(=O)NC(C)C)N2C(=O)[C@@H](C3Cc4ccccc4C3)NC(=O)[C@H]2CC(C)C)co1
Sorting by fraction unbound in descending order, would P or Q appear first? Respond with the label that goes with your answer.
Q

* * *

# systemUnderTest: Vasopressin V1a receptor (Homo sapiens, UniProt P37288)
# Sequence (P37288 whole entry): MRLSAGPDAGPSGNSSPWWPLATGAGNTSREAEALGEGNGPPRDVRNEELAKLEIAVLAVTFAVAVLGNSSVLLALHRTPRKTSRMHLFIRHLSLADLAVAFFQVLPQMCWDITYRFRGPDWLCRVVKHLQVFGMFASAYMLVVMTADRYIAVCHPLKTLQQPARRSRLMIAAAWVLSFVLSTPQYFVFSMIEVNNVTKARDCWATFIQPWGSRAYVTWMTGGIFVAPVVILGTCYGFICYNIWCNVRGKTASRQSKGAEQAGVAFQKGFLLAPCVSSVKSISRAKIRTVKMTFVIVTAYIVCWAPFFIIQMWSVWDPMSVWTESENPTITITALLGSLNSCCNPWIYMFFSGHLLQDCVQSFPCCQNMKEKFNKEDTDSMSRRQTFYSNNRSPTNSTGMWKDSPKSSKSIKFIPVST
Where a SMILES comes first, the peptide text is derived from it. Bridges are numbered along the chain shown (N, C = ends). [ ]: non-standard residue; d: D form. Orn = NCCC[C@H](N)C(=O)O; Mpa = O=C(O)CCS
experimentalEndpoint: Ki (nM)
Respond numerically; units are nM and should not be typed.

What does the record list as Ki for CCOc1ccc(C[C@H]2NC(=O)CCSSC[C@@H](C(=O)N3CCC[C@H]3C(=O)N[C@@H](CCCN)C(=O)NCC(N)=O)NC(=O)[C@H](CC(N)=O)NC(=O)[C@H]([C@@H](C)O)NC(=O)[C@H]([C@@H](C)CC)NC2=O)cc1 [ATOSIBAN] ([Mpa][dY](Et)ITNCP[Orn]G-NH2; disulfide 1-6) ?
0.15
